system: GSK3A; details: concentration: 1 μM, replicates: in singlicate; n = 1;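 further: KINOMEscan kinase panel screen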
measure_name: %Inh (%)
Please give a number only; it is taken to be in %.

Solved entries:
Prompt line: # query: %Inh of entry Nc1nc(-c2cccnc2)c(-c2ccnc3ccccc23)s1
Response line: 11

Prompt line: # lookup: %Inh of Nc1nc(-c2ccc3c(N)n[nH]c3c2)cc(N2CCC[C@@H](C(=O)Nc3ccccc3)C2)n1.O=C(O)C(F)(F)F.O=C(O)C(F)(F)F
Response line: 20

Prompt line: Which %Inh is listed for Nc1n[nH]c2nnc(-c3ccccc3)cc12 ?
Response line: 71

Prompt line: Field request: %Inh | item: O=C(CCO)NCCn1ccc2ncnc(Nc3ccc(Oc4cccc(C(F)(F)F)c4)c(Cl)c3)c21
Response line: 6

Prompt line: For the compound shown here, CC(C)(C)c1ccc(-n2cnc3c(N)ncnc32)cc1 , give the reported %Inh.
Response line: 31

Prompt line: // returns reported %Inh for input CC(C)N1CCC(n2cnc(-c3ccc(F)cc3)c2-c2ccnc(N)n2)CC1
Response line: 17

Prompt line: Need %Inh of Clc1cc(Nc2ncnc3cc[nH]c23)ccc1OCc1ccccn1 , thanks.
Response line: 6

Prompt line: Recorded %Inh of Cl.Fc1ccccc1COc1ccc(Nc2ncnc3ccc(-c4nnc(C(F)(F)F)o4)cc23)cc1Cl , please.
Response line: 17

***
Prompt line: Which value of %Inh has been reported for O=C(NCCCN1CCCC1=O)c1cnc(NCc2cc(Cl)ccc2Cl)nc1NC1CCNCC1 in the records?
Response line: 0

Prompt line: Please give the measured %Inh for this compound: Cc1cc(N2CCC(NS(=O)(=O)c3ccc(F)cc3)CC2)nc(Nc2cccc(C#N)c2)n1.O=C(O)C(F)(F)F
Response line: 0

Prompt line: Requested read-out: %Inh. Entry: COc1cc2c(Nc3cccc(NC(=O)c4ccccc4)c3)ncnc2cc1OCCCN1CCOCC1
Response line: 0

Prompt line: Would you mind telling me what %Inh value was observed for Clc1cccc(-c2nc(Nc3ccncc3)c3ccccc3n2)c1 ?
Response line: 0

Prompt line: Name the reported %Inh value associated with the compound COc1ccc(Nc2nccc(N3CCC(NC(=O)Nc4ccc5c(c4)OCO5)C3)n2)cc1 (stereo not shown)
Response line: 0

---

Listed below: %Inh values for each entry.
system: ICK; conditions: concentration: 1 μM, replicates: in singlicate; n = 1
Give the number; % is assumed, so skip it.

Prompt line: Look up %Inh: CCCc1ccc(S(=O)(=O)NC2CCN(c3ccnc(Nc4ccc(OC)cc4)n3)C2)cc1 (stereo not drawn)
Response line: 0

Prompt line: GET /values?readout=%Inh&item= COC(=O)c1c(-c2ccccc2)c2cc(Cl)ccc2c(=O)n1Cc1ccc(S(C)(=O)=O)cc1
Response line: 32

Prompt line: Return reported %Inh; argument: O=C(Nc1ccccc1)Nc1ccc(Oc2ccc3nccn3n2)cc1
Response line: 0

Prompt line: # input molecule: Cl.Cn1ccc(-c2cccc(Nc3ccnc4cc(-c5nccs5)ccc34)c2)n1 ; wanted: its %Inh
Response line: 11

---
Prompt line: Entry under review: Cc1cccc(-c2nc(Nc3ccc4[nH]nnc4c3)c3ccccc3n2)n1 . Reported %Inh?
Response line: 0

Prompt line: Given the molecule CC(=O)Nc1n[nH]c2ncc(-c3ccccc3)cc12 , what is its reported %Inh?
Response line: 28

Prompt line: Given the molecule COc1cc2ncnc(Nc3ccc(OCc4ccccc4Br)c(Cl)c3)c2cc1OC.Cl , what is its reported %Inh?
Response line: 0

Prompt line: // %Inh lookup, key: O=c1cc(N2CCOCC2)nc2n(Cc3cccc(Cl)c3)ccn12
Response line: 19

Prompt line: Field request: %Inh | item: Fc1cccc(COc2ccc(Nc3ncnc4cc[nH]c34)cc2Cl)c1
Response line: 5

Prompt line: If you can, please state the reported %Inh value of CCC(CC)(CC)n1cnc2c(N)ncnc21 .
Response line: 32

Prompt line: %Inh lookup needed for Cc1ccc(C)c(NC(=O)NCCNc2ccnc(Nc3ccc(F)cc3)n2)c1 , thanks.
Response line: 0

Prompt line: # %Inh lookup, item Fc1cccc(COc2ccc(Nc3ncnc4nn5ccccc5c34)cc2Cl)c1
Response line: 0
